Data provenance: PubChem BioAssay (NCI)

tested on: MDA-MB-231 breast; assay: NCI-60 one-dose screen, 48 h (100 = growth as untreated, 0 = no growth, -100 = all killed); details: 10 µM unless noted
The panel holds about 83,000 compounds, 20% with a hit somewhere; the sample as a whole holds those more often. Calls of active or inactive are those of the source. How the source made its calls: active means growth percent below 10; inactive means the rest.
READOUT NAME: growth

Some entries whose results are on file:
O=C(/C=C/C12c3ccccc3C(c3ccccc31)C1C(=O)N(c3ccccc3)C(=O)C12)c1ccccc1 (stereo not drawn) :: -3.22% (active)
C[N+](C)(C)CCOC(OCC[N+](C)(C)C)(c1ccccc1)c1ccccc1 :: 108% (inactive)

# context switch: different molecule, same growth
The reported value for `COc1ccc(/C(C)=N/NS(=O)(=O)c2ccc(C)cc2)cc1OC` in terms of growth is 113% (inactive)

---

Reported values of growth for individual entries
tested on: UACC-62 melanoma; assay: NCI-60 one-dose screen, 48 h (100 = growth as untreated, 0 = no growth, -100 = all killed); conditions: 10 µM unless noted
This is part of a sample that, as a whole, favours compounds with a hit. Of some 83,000 tested, about 20% had one in any assay.
# number only, unit % dropped from output

The reported value for `CN1CCN(CCCOc2ccc3nc(Nc4cc(Cl)cc(Cl)c4)ccc3c2)CC1` in terms of growth is -81.5

The reported value for `CCOC(=O)c1nnn(-c2ccccc2)c1C1=CN(C)CCC1` in terms of growth is 100

---

system: PC-3 prostate; experiment: NCI-60 one-dose screen, 48 h (100 = growth as untreated, 0 = no growth, -100 = all killed); conditions: 10 µM unless noted
This is part of a sample that, as a whole, favours compounds with a hit. Of some 83,000 tested, about 20% had one in any assay.
READOUT NAME: growth (%)
# number only, unit % dropped from output

O=C(Nc1ccccc1)c1sc(-c2cccc(C(F)(F)F)c2)cc1O :: 81
Cl.[Pt].[c-]1ccccc1-c1ccccn1.c1ccc(P(c2ccccc2)C([PH+](c2ccccc2)c2ccccc2)[PH+](c2ccccc2)c2ccccc2)cc1 :: 9.46

The reported value for `Cc1cc(C)on1` in terms of growth is 89.9

The reported value for `NC(N)=N/N=C/CO` in terms of growth is 91.2

The reported value for `Cc1[nH]c(-c2nc3ccccc3[nH]2)c(C)c1C(=O)NNc1ccc(Cl)cc1` in terms of growth is 85.6

The reported value for `CN(C)c1ccc(/C=C/c2c(F)cccc2F)cc1` in terms of growth is 81.7

The reported value for `NC(=O)c1c(NC(=O)c2ccc(C(F)(F)F)cc2Cl)sc2c1CCC(=O)C2` in terms of growth is -68.8

The reported value for `O=C(NC(=S)Nc1ccc(-c2nc3ccccc3[nH]2)cc1)c1ccc2ccccc2c1` in terms of growth is 22.8

The reported value for `Cn1ccnc1C(=O)/C=C/c1ccc(C(=O)Nc2ccc(S(F)(F)(F)(F)F)cc2)cc1` in terms of growth is 17.4

The reported value for `Cc1ccc(/C(=N\N=C(N)N)c2ccccc2)cc1` in terms of growth is 14.1

The reported value for `Cc1ccc(S(=O)(=O)N(CC[C@@H]2C[C@H]2c2cc3ccccc3o2)C(=O)NC2CCCCC2)cc1` in terms of growth is 95.6

The reported value for `COc1cc(CNC(=O)/C=C/C=C/c2ccc3c(c2)OCO3)ccc1OCc1cn(-c2ccc(Cl)c(Cl)c2)nn1` in terms of growth is -11

The reported value for `CC(=O)NCC(=O)Nc1ccc(-c2nnc3ccccn23)nc1.CC(=O)NCC(=O)Nc1ccc(-c2nnc3ccccn23)nc1.[Pt+2]` in terms of growth is 101

The reported value for `Nc1ccc2c(S(=O)(=O)O)ccc(S(=O)(=O)O)c2c1` in terms of growth is 91.9

The reported value for `COc1ccc(Nc2ncc(Br)c(NCCCNC(=O)C3CCC3)n2)cc1` in terms of growth is 39.2

The reported value for CNC(=O)NCC1OC(n2cnc3c(NC(=O)Nc4ccccc4)ncnc32)C2OC(C)(C)OC12 (stereo not drawn) in terms of growth is 71

The reported value for `C/C(=N\NC(=O)Cn1c(-c2ccc(S(C)(=O)=O)cc2)nc2cc(Cl)ccc21)c1ccc(Cl)cc1` in terms of growth is 49.2

The reported value for `O=C1C2=C(CCN(Cc3ccccc3)C2)N2CCN=C2N1Cc1ccc(F)cc1F` in terms of growth is 21.3

The reported value for `CCCCCCNc1cc(C)nc2ccc(OC)cc12` in terms of growth is 65.9

The reported value for Nc1ccn(C2OC(F)(CO)C(O)C2F)c(=O)n1 (stereo not drawn) in terms of growth is 50.1

The reported value for `O=C(CC12CC3CC(CC(C3)C1)C2)NCCOCCOCCOCCNC(=O)c1cc2c(o1)C(=O)c1ccccc1C2=O` in terms of growth is 13.1

The reported value for `COC(=O)CNC(=O)C(=O)c1c(O)c(O)c(C(C)C)c2cc(C)c(-c3c(C)cc4c(C(C)C)c(O)c(O)c(C(=O)C(=O)NCC(=O)OC)c4c3O)c(O)c12` in terms of growth is 18.7

The reported value for `O=C(CC12CC3CC(CC(C3)C1)C2)NCCOCCOCCNC(=O)c1cc2c(o1)C(=O)c1ccccc1C2=O` in terms of growth is 4.8
